Quick reference for Emax among some molecules
STUDY SYSTEM: CatSper (Homo sapiens, UniProt Q7RTX7+Q86XQ3+Q8NEC5+Q96P56)
Construct: Motile spermatozoa were selected by a ‘swim-up’ procedure; endogenous in cells; host or cells: motile human spermatozoa (swim-up) from healthy donors
TEST: Steroid-induced increase in [Ca2+]i in human sperm (Fluo-4 HTS assay, screen 1 activators)
Format: cell-based
CONDITION CONTEXT: maximal amplitude of steroid-induced [Ca2+]i increase, relative to P4; 3 independent experiments; read-out: Max amplitude (%) (± SD)
RECORDED ENDPOINT: Emax (%)

{"MOLECULE": "C#C[C@]1(O)CC[C@H]2[C@@H]3CCC4=CCCC[C@@H]4[C@H]3CC[C@@]21C", "UNIT TAG": "%", "VALUE OBSERVED": 59}
{"MOLECULE": "C[C@]12CCC(=O)C=C1C=C[C@@H]1[C@@H]2CC[C@@]2(C)[C@H]1CC[C@@]21CCC(=O)O1", "UNIT TAG": "%", "VALUE OBSERVED": 69}
{"MOLECULE": "CC(=O)O[C@]1(C(C)=O)CC[C@H]2[C@@H]3C=C(Cl)C4=CC(=O)CC[C@]4(C)[C@H]3CC[C@@]21C [chlormadinone acetate]", "UNIT TAG": "%", "VALUE OBSERVED": 4}
{"MOLECULE": "CC(=O)[C@H]1CC[C@H]2[C@@H]3CC=C4C[C@@H](O)CC[C@]4(C)[C@H]3CC[C@]12C", "UNIT TAG": "%", "VALUE OBSERVED": 73}
{"MOLECULE": "CC(C)(C)NC(=O)[C@H]1CC[C@H]2[C@@H]3CC[C@H]4NC(=O)C=C[C@]4(C)[C@H]3CC[C@]12C [finasteride]", "UNIT TAG": "%", "VALUE OBSERVED": 39}
{"MOLECULE": "C#C[C@]1(O)CC[C@H]2[C@@H]3CCc4cc(OC)ccc4[C@H]3CC[C@@]21C", "UNIT TAG": "%", "VALUE OBSERVED": 9}
{"MOLECULE": "C#C[C@]1(O)CC[C@H]2[C@@H]3CCc4cc(O)ccc4[C@H]3CC[C@@]21C", "UNIT TAG": "%", "VALUE OBSERVED": 69}
{"MOLECULE": "C#C[C@]1(OC(C)=O)CC[C@H]2[C@@H]3CCC4=CC(=NO)CC[C@@H]4[C@H]3CC[C@@]21CC (mixture of isomers) [norgestimate]", "UNIT TAG": "%", "VALUE OBSERVED": 79}
{"MOLECULE": "CCCC1O[C@@H]2C[C@H]3[C@@H]4CCC5=CC(=O)C=C[C@]5(C)[C@H]4[C@@H](O)C[C@]3(C)[C@]2(C(=O)CO)O1 (stereo partly drawn) [budesonide]", "UNIT TAG": "%", "VALUE OBSERVED": 7}
